This collection of values is drawn from ChEMBL document CHEMBL5260817.

Test system: Trypanosoma cruzi
Test: Antiprotozoal activity against Trypanosoma cruzi epimastigotes
Format: functional, organism-based
EXPERIMENTAL_READOUT: pIC50
When answering, recall that pIC50 equals minus log10 of the concentration in mol/L, and write that number alone.

Q) Provide one value: measured pIC50 of CCCCCCCCCCNCCCCCCN
A) 4.84

* * *

System: Trypanosoma cruzi
Experiment: Antiprotozoal activity against Trypanosoma cruzi […] strain infected in mouse macrophage cell measured after 3 days
Format: functional, organism-based
Details: 72 h
EXPERIMENTAL_READOUT: IC50

Q) Provide one value: measured IC50 of CC1=C(CCCCCC(=O)NCCCCNCCCNC(=O)CCCCCC2=C(C)C(=O)c3ccccc3C2=O)C(=O)c2ccccc2C1=O
A) < 5 µM

* * *

Tested on: Leishmania braziliensis
Test: Antiprotozoal activity against Leishmania braziliensis MHOM/PE/84/LC26 amastigotes infected in mouse J774.2 cells measured after 72 hrs
Format: functional, organism-based
Conditions: J774.2, 72 h
Exercise: state measured pIC50 for each of the compounds provided.
When answering, recall that pIC50 equals minus log10 of the concentration in mol/L, and write that number alone.

Q) System Leishmania braziliensis. Read-out pIC50. Item CN1CCN(CCC(=O)Nc2cc(Br)ccc2Sc2cccc(NC(=O)CCCC(=O)Nc3cccc(Sc4ccc(Br)cc4NC(=O)CCN4CCN(C)CC4)c3)c2)CC1 . Report value.
A) 6.26

Q) System Leishmania braziliensis. Read-out pIC50. Item CN1CCN(CCC(=O)Nc2cc(Cl)ccc2Sc2cccc(NC(=O)CCCC(=O)Nc3cccc(Sc4ccc(Cl)cc4NC(=O)CCN4CCN(C)CC4)c3)c2)CC1 . Report value.
A) 6.03

* * *

Exercise: state measured Ki for each of the molecules provided.
Target: Trypanothione reductase (Trypanosoma cruzi)
Sequence (P28593 whole entry): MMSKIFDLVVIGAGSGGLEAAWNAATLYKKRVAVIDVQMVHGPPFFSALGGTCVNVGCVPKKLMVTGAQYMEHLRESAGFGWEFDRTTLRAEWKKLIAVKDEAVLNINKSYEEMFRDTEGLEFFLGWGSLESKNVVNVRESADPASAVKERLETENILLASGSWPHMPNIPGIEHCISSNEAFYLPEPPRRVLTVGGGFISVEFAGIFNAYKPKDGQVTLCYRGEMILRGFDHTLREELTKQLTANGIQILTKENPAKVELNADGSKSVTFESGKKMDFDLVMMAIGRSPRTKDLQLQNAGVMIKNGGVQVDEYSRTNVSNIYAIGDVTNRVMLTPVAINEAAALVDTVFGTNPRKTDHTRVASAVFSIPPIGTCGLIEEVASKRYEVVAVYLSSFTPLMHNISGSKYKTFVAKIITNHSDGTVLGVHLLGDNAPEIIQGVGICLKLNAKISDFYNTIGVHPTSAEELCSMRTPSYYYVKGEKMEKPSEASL
Test: Inhibition of Trypanosoma cruzi TryR assessed as inhibition constant

Q) Provide one value: measured Ki of NCCCCN(CCCN)C(=O)OCc1ccccc1
A) > 100 µM

Q) Provide one value: measured Ki of NCCCCN(CCCN)Cc1ccc2ccccc2c1
A) > 100 µM

Q) Provide one value: measured Ki of NCCCCN(CCCN)Cc1ccccc1
A) > 100 µM
